assay: physchem; assay type: physicochemical; conditions: 25 °C, organic solvent or mixture, thermodynamic from solid, PEG200; shaken at 25° C. for 24 h
result type: solubility at 24 h (mg/mL)

[
  {
    "compound": "COc1cc(CNC(=O)CCCC/C=C/C(C)C)ccc1O [CAP, capsaicin]",
    "display unit": "mg/mL",
    "number": 367
  }
]

###

Assay: physchem
Format: physicochemical
Details: 25 °C, pH 2, simulated gastric fluid, thermodynamic from solid, pH 2.0 hydrochloric acid medium; shaken at 25° C. for 24 h
Procedure: About 3 g of each solvent was weighed according to Table 3, and an excess amount of capsaicin was added. The mixture was placed into a constant-temperature oscillator for oscillation for 24 h (25° C., 200 rpm), and then centrifuged at 10000 rpm for 30 min. The supernatant was taken to measure the capsaicin content. The solubility of CAP in different solvents (different pH buffers, commonly used oil phases, and water-soluble organic solvents) was measured, with the results shown in Table 3: […]

[
  {
    "query smiles": "COc1cc(CNC(=O)CCCC/C=C/C(C)C)ccc1O",
    "solubility at 24 h / µg/mL": 52
  }
]
